System: NCI-H460
Test: Cytotoxicity against human NCI-H460 cells
Format: functional, cell-based
Settings: nci-h460
MEASURED_PROPERTY: IC50 (µM)
Give the value, in units of µM, as a plain number.

Request the reported IC50 associated with O=C1CCCC1C1(O)c2ccccc2-n2c1nc1ccccc1c2=O (stereo in doubt; 11)
19.1

###

Tested on: MCF7
Assay: Cytotoxicity against human MCF7 cells
Format: functional, cell-based
Conditions: Homo sapiens, MCF7
pIC50: −log10 of the molar value.
MEASURED_PROPERTY: pIC50

// worked examples, pIC50 included
MOLECULE: COC(=O)C1(O)c2ccccc2N=C2C(=O)c3ccccc3N21 (stereo not drawn)
pIC50: < 4.30
//
MOLECULE: O=C(CC1(O)c2ccccc2-n2c1nc1ccccc1c2=O)c1ccccc1 (stereo not drawn)
pIC50: < 4.30

Now consider a different molecule.
Request the reported pIC50 associated with O=C1CCCC1C1(O)c2ccccc2-n2c1nc1ccccc1c2=O (stereo in doubt; 12)
4.68

###

Test system: MCF7
Assay: Cytotoxicity against human MCF7 cells
Type: functional, cell-based
Conditions: Homo sapiens, MCF7
MEASURED_PROPERTY: pIC50
Note on units: pIC50 is unitless, being -log10 of a concentration expressed in mol/L.

// worked examples, pIC50 included
COMPOUND: CCC(=O)C(C)C1(O)c2ccccc2-n2c1nc1ccccc1c2=O (centres undefined)
MEASURED_VALUE: 4.80
//
COMPOUND: O=C1c2ccccc2-n2c1nc1ccccc1c2=O
MEASURED_VALUE: 4.95

Request the reported pIC50 associated with CC(=O)CC1(O)c2ccccc2-n2c1nc1ccccc1c2=O (centres undefined)
4.55

# repeat for CCCCCCCCC(=O)CC1(O)c2ccccc2-n2c1nc1ccccc1c2=O (centres undefined)
4.39
